Below: a set of entries, each annotated with reported Ki.
Molecular target: T1, MDM2 (In-house, 41 kD) (UniProt Q00987 1-138, limits assumed)
T1 construct: Construct used in the FP assays is described only as in-house, 41 kD; also called HDM2
T1 sequence (Q00987 1-138 limits assumed): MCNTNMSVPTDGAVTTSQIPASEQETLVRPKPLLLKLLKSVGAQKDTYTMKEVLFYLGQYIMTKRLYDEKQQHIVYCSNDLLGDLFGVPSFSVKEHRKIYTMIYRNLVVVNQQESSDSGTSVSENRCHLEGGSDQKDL
Assay: competitive fluorescence polarization, Ki (MDM2)
Bridge positions count the residues as written; N and C are the ends. Square brackets hold non-standard residues; d marks the D form. $4rn6 = Alpha-Me R-azide 1,4 triazole (6 carbon), forms a triazole cross-link with a second residue in the same molecule; $4a5 = Alpha-Me alkyne 1,4 triazole (5 carbon), forms a triazole cross-link with a second residue in the same molecule; $5rn6 = Alpha-Me R-azide 1,5 triazole (6 carbon); $5a5 = Alpha-Me alkyne 1,5 triazole (5 carbon); Cba = N[C@@H](CC1CCC1)C(=O)O

Consider Ac-LTA[$4rn6]EYWAQ[Cba][$4a5]SAA-NH2 (triazole 4-11, also called Ac-LTA$4rn6EYWAQCba$4a5SAA-NH2) [SP-460] . Its measured Ki is > 1000 nM

Lab note: Ac-LTA[$5rn6]EYWAQ[Cba][$5a5]SAA-NH2 (triazole 4-11, also called Ac-LTA$5rn6EYWAQCba$5a5SAA-NH2) [SP-459] gave Ki of > 1000 nM

These measurements were taken from patent US8987414.
